Below is a list of entries, each paired with its recorded IC50 value.
Experimental target: IRAK4 (Homo sapiens (Human))
Assay overview: In vitro IRAK4 phosphorylation activity assay
Type: biochemical
Run parameters: [γ-33P]-ATP, myelin basic protein substrate, 40 minutes at room temperature; categories

Asked: What measured IC50 is associated with O=C(Nc1nc(CCCCCCN2CCCCC2=O)cn1-c1ccccc1)c1cccc(-c2ccc3[nH]ncc3c2)c1 [Example 260] on IRAK4 (Homo sapiens (Human))?
Given back: < 50 nM

Asked: Similarly, O=C(CCc1cn(-c2ccccc2)c(NC(=O)c2cccc(-c3cnoc3)c2)n1)Nc1ccccc1 [Example 5] ?
Given back: > 100 nM

Asked: Similarly, Cn1cc(-c2cccc(C(=O)Nc3nc(CCCC(=O)N4CCCC[C@@H]4C(F)(F)F)cn3-c3ccccc3)c2)cn1 [Example 176] ?
Given back: < 50 nM

Asked: Similarly, CN1CCN(C(=O)CCCCCc2cn(-c3ccccc3)c(NC(=O)c3cccc(-c4ccc(N)nc4)c3)n2)CC1 [Example 272] ?
Given back: < 50 nM

Asked: Similarly, CC(C)N1CCN(C(=O)CCCc2cn(-c3ccccc3)c(NC(=O)c3cccc(-c4cnn(C)c4)c3)n2)CC1 [Example 145] ?
Given back: < 50 nM

Asked: Similarly, COC[C@@H]1CCCN1C(=O)CCCCCc1cn(-c2ccccc2)c(NC(=O)c2cccc(-c3cn[nH]c3)c2)n1 [Example 100] ?
Given back: < 50 nM

Asked: Similarly, O=C(CCc1cn(-c2cccc(Br)c2)c(NC(=O)c2cccc(-c3cn[nH]c3)c2)n1)Nc1ccccc1 [Example 294] ?
Given back: 50 to 100 nM

###

Experimental target: IRAK4 (Homo sapiens (Human), UniProt Q9NWZ3)
Sequence (Q9NWZ3 whole entry): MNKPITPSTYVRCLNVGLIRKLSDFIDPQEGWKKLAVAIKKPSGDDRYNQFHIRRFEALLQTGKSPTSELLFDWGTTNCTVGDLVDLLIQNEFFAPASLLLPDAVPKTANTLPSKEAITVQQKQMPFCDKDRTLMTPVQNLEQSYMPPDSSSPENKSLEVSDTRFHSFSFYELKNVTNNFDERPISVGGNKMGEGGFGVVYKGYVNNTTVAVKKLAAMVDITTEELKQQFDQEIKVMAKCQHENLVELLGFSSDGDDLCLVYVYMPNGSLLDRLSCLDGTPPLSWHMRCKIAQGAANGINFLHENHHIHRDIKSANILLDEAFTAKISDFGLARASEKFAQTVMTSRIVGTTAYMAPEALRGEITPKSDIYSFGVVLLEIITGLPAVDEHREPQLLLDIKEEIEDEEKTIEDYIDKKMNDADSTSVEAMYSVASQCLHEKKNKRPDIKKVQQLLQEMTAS
Assay overview: In vitro IRAK4 phosphorylation activity assay
Type: biochemical
Run parameters: [γ-33P]-ATP, myelin basic protein substrate, 40 minutes at room temperature; categories
pIC50: −log10 of the molar value.
Parameter measured: pIC50

Worked set:
# Smiles text, Observed
data = [
    ("Cn1cc(-c2cccc(C(=O)Nc3nc(CCC(=O)Nc4ccccc4)cn3-c3ccccc3)c2)cn1", "7.00 to 7.30"),
    ("Cn1cc(-c2cccc(C(=O)Nc3nc(CCCC(=O)N4CCN(c5ccccc5)CC4)cn3-c3ccccc3)c2)cn1", "> 7.30"),
    ("COC(=O)CCCCCc1cn(-c2ccccc2)c(NC(=O)c2cccc(-c3cn[nH]c3)c2)n1", "> 7.30"),
]

Here is another compound to look at.
Asked: What measured pIC50 is associated with Nc1ccc(-c2cccc(C(=O)Nc3nc(CCCC(=O)N4CCCCC4)cn3-c3ccccc3)c2)cn1 on IRAK4 (Homo sapiens (Human), UniProt Q9NWZ3)?
Given back: > 7.30

###

Values of IC50 reported for IRAK4 (Homo sapiens (Human)) appear below.

Worked set:
# Compound, Observed
measured = [
    ("COC1CCC(NC(=O)CCCc2cn(-c3ccccc3)c(NC(=O)c3cccc(-c4cnn(C)c4)c3)n2)CC1 (stereo not shown)", "< 50 nM"),
    ("O=C(Nc1nc(CCC(=O)N2CCN(Cc3ccc(OC(F)(F)F)cc3)CC2)cn1-c1ccccc1)c1cccc(-c2cn[nH]c2)c1", "> 100 nM"),
    ("Nc1ccc(-c2cccc(C(=O)Nc3nc(CCCCCCN4CCCC4=O)cn3-c3ccccc3)c2)cn1", "< 50 nM"),
]

Asked: Reported IC50, compound O=C(Nc1nc(CCCCCN2CCCCC2)cn1-c1ccccc1)c1cccc(-c2cn[nH]c2)c1 : ____
Given back: < 50 nM

###

Values of pIC50 reported for IRAK4 (Homo sapiens (Human)) appear below.
pIC50: −log10 of the molar value.

Worked set:
# Smiles text, Observed
records = [
    ("CNC(=O)CCCc1cn(-c2ccc(F)cc2F)c(NC(=O)c2cccc(-c3cn[nH]c3)c2)n1", "7.00 to 7.30"),
    ("O=C(CCCc1cn(-c2ccccc2)c(NC(=O)c2cccc(-c3ccc4cn[nH]c4c3)c2)n1)NC1CC1", "> 7.30"),
    ("CN(C)C1CCN(C(=O)CCCCCc2cn(-c3ccccc3)c(NC(=O)c3cccc(-c4ccc5ncsc5c4)c3)n2)CC1", "> 7.30"),
]

Here is another molecule to look at.
Asked: Reported pIC50, molecule Cn1cc(-c2cccc(C(=O)Nc3nc(CCCC(=O)N4CCC(N)CC4)cn3-c3ccccc3)c2)cn1 : ____
Given back: > 7.30

###

Values of IC50 reported for IRAK4 (Homo sapiens (Human)) appear below.

Worked set:
# Compound, Experimental target, IC50
data = [
    ("CC1CCCCN1C(=O)CCCc1cn(-c2ccccc2)c(NC(=O)c2cccc(-c3cnn(C)c3)c2)n1 (stereo not shown) [Example 166]", "IRAK4 (Homo sapiens (Human))", "< 50 nM"),
    ("COC[C@@H]1CCCN1C(=O)Cc1cn(-c2ccccc2)c(NC(=O)c2cccc(-c3cn[nH]c3)c2)n1 [Example 46]", "IRAK4 (Homo sapiens (Human))", "50 to 100 nM"),
]

Asked: Reported IC50, compound O=C(CCCc1cn(-c2ccccc2)c(NC(=O)c2cccc(-c3cnn(C(F)(F)F)c3)c2)n1)NC1CC1 [Example 236] : ____
Given back: < 50 nM

Asked: Similarly, O=C(CCc1cn(-c2ccccc2)c(NC(=O)c2cccc(-c3cn[nH]c3)c2)n1)Nc1ccccn1 [Example 15] ?
Given back: > 100 nM

###

Values of pIC50 reported for IRAK4 (Homo sapiens (Human)) appear below.
pIC50: −log10 of the molar value.

Worked set:
# Compound, Experimental target, Observed
measured = [
    ("Cn1cc(-c2cccc(C(=O)Nc3nc(CCCC(=O)NC[C@@H](F)C(C)(C)O)cn3-c3ccccc3)c2)cn1 [Example 185]", "IRAK4 (Homo sapiens (Human))", "7.00 to 7.30"),
    ("Cn1cc(-c2cccc(C(=O)Nc3nc(CCCC(=O)N4CCC[C@H](C(=O)O)C4)cn3-c3ccccc3)c2)cn1 [Example 207]", "IRAK4 (Homo sapiens (Human))", "> 7.30"),
]

Here is another compound to look at.
Asked: Reported pIC50, compound O=C(CCCc1cn(-c2ccccc2)c(NC(=O)c2cccc(-c3cnn(CF)c3)c2)n1)NC1CC1 [Example 234] : ____
Given back: > 7.30

###

Below is a list of entries, each paired with its recorded IC50 value.
Experimental target: IRAK4 (Homo sapiens (Human))
Assay overview: In vitro IRAK4 phosphorylation activity assay
Type: biochemical
Run parameters: [γ-33P]-ATP, myelin basic protein substrate, 40 minutes at room temperature; categories

Asked: Reported IC50, molecule O=C(Nc1nc(CCN2CCCCC2)cn1-c1ccccc1)c1cccc(-c2cn[nH]c2)c1 [Example 104] : ____
Given back: > 100 nM

###

Values of pIC50 reported for IRAK4 (Homo sapiens (Human)) appear below.
pIC50: −log10 of the molar value.

# Compound, pIC50
measured = [
    ("Cn1cc(-c2cccc(C(=O)Nc3nc(CCCCNC(=O)C4CC4)cn3-c3ccccc3)c2)cn1 [Example 227]", "> 7.30"),
    ("O=C(Nc1nc(CCCCCCN2CCCCC2)cn1-c1ccccc1)c1cccc(-c2ccncc2)c1 [Example 268]", "7.00 to 7.30"),
    ("CNC(=O)Cc1cn(-c2ccccc2)c(NC(=O)c2ccc3[nH]ncc3c2)n1 [Example 49]", "< 7.00"),
]

Here is another compound to look at.
Asked: What measured pIC50 is associated with O=C(Nc1nc(CCCN2CCOCC2)cn1-c1ccccc1)c1cccc(-c2cn[nH]c2)c1 [Example 107] on IRAK4 (Homo sapiens (Human))?
Given back: > 7.30

###

Experimental target: IRAK4 (Homo sapiens (Human), UniProt Q9NWZ3)
Below is a list of entries, each paired with its recorded IC50 value.

# Molecule, Experimental target, IC50
rows = [
    ("O=C(CCCCCc1cn(-c2ccccc2)c(NC(=O)c2cccc(-c3ccc4ncsc4c3)c2)n1)NC1CC1", "IRAK4 (Homo sapiens (Human), UniProt Q9NWZ3)", "< 50 nM"),
    ("O=C(CCc1cn(CC2CCCCC2)c(NC(=O)c2cccc(-c3cn[nH]c3)c2)n1)Nc1ccccc1", "IRAK4 (Homo sapiens (Human), UniProt Q9NWZ3)", "> 100 nM"),
    ("O=C(Nc1nc(CCCCC(=O)N2CCCCC2)cn1-c1ccccc1)c1cccc(-c2cn[nH]c2)c1", "IRAK4 (Homo sapiens (Human), UniProt Q9NWZ3)", "< 50 nM"),
    ("Cn1cc(-c2cccc(C(=O)Nc3nc(CCCC(=O)N4CCCC(O)C4)cn3-c3ccccc3)c2)cn1 (stereo not drawn)", "IRAK4 (Homo sapiens (Human), UniProt Q9NWZ3)", "< 50 nM"),
    ("CCOC(C)n1cc(-c2cccc(C(=O)Nc3nc(CCCC(=O)NC4CC4)cn3-c3ccccc3)c2)cn1 (stereo not drawn)", "IRAK4 (Homo sapiens (Human), UniProt Q9NWZ3)", "> 100 nM"),
]

Asked: Reported IC50, molecule Cn1cc(-c2cccc(C(=O)Nc3nc(CCCCCCN4C(=O)CCC4=O)cn3-c3ccccc3)c2)cn1 : ____
Given back: < 50 nM

Asked: Similarly, Cn1ncc2cc(-c3cccc(C(=O)Nc4nc(CCCCCCN5CCCCC5)cn4-c4ccccc4)c3)ccc21 ?
Given back: 50 to 100 nM

Asked: Similarly, Cn1cc(-c2cccc(C(=O)Nc3nc(CCCC(=O)N4CCC(C#N)CC4)cn3-c3ccccc3)c2)cn1 ?
Given back: < 50 nM

Asked: Similarly, Cn1cc(-c2cccc(C(=O)Nc3nc(CCCCCCN4CCCCCC4)cn3-c3ccccc3)c2)cn1 ?
Given back: < 50 nM

Asked: Similarly, CNC(=O)Cc1cn(-c2ccccc2)c(NC(=O)c2cccc(-c3cn[nH]c3)c2)n1 ?
Given back: > 100 nM

Asked: Similarly, O=C(Nc1nc(CCCCCC(=O)N2CCCCC2)cn1-c1ccccc1)c1cccc(-c2cn[nH]c2)c1 ?
Given back: < 50 nM

Asked: Similarly, Cn1cc(-c2cccc(C(=O)Nc3nc(CCCCN4CCCC4=O)cn3-c3ccccc3)c2)cn1 ?
Given back: < 50 nM

Asked: Similarly, CNC(=O)CCc1cn(-c2ccccc2)c(NC(=O)c2cccc(-c3cn[nH]c3)c2)n1 ?
Given back: < 50 nM

Asked: Similarly, CCOC(C)(C)n1cc(-c2cccc(C(=O)Nc3nc(CCCC(=O)NC4CC4)cn3-c3ccccc3)c2)cn1 ?
Given back: 50 to 100 nM

Asked: Similarly, Cn1cc(-c2cccc(C(=O)Nc3nc(CCCC(=O)N4CCC[C@@H](N)C4)cn3-c3ccccc3)c2)cn1 ?
Given back: < 50 nM
